- study_system: KPC-2^D179Y/T243M (Klebsiella pneumoniae, UniProt Q9F663, D178Y/T242M)
- Sequence (Q9F663 25-293 D178Y/T242M): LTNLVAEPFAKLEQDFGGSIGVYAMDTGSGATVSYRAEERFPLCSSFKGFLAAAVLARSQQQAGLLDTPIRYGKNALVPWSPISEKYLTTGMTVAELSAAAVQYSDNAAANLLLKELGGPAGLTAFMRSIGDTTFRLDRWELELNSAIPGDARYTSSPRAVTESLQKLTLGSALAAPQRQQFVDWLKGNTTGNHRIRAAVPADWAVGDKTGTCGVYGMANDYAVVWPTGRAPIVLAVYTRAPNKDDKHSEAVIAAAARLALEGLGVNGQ
- measurement_description: biochemical
- experimental_parameters: ND = no significant inhibition at the highest concentration tested, read-out: Apparent affinity Ki^app
measure_name: Ki (µM)
One number for each entry, in µM.

Look at this compound and give its reported Ki. CO/N=C(\C(=O)N[C@@H]1C(=O)N2C(C(=O)[O-])=C(C[N+]3(C)CCCC3)CS[C@H]12)c1csc(N)n1 [FEP, cefepime]
3.2

----------
- study_system: KPC-3^D179Y/T243M (Klebsiella pneumoniae, UniProt Q9F663, D178Y/H272Y/T242M)
- Sequence (Q9F663 27-293 D178Y/T242M/H272Y): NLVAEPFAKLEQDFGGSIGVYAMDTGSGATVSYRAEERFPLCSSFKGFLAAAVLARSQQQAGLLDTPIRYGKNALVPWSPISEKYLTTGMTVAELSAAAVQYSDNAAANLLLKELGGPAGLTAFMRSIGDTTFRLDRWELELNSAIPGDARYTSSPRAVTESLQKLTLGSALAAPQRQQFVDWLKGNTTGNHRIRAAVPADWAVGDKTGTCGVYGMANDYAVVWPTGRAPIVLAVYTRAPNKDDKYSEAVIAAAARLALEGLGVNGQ
- measurement_description: Inhibition kinetics (CENTA hydrolysis, jump dilution), KPC-3 D179Y/T243M
- Type: biochemical
- experimental_parameters: estimated from ratio koff / k2/K
measure_name: Kd (nM)
Answers are plain numbers, in nM.

{"columns": ["molecule", "measure_name", "measured_result"],
 "data": [
  ["NCCN[C@H]1CC[C@H](CC(=O)N[C@H]2Cc3cccc(C(=O)O)c3OB2O)CC1", "Kd", 193]
]}

Next up:
Look at this compound and give its reported Kd. CCC(=O)N[C@H]1Cc2cccc(C(=O)O)c2OB1O
620
